Molecular target: Histone deacetylase 2 (Homo sapiens)
Sequence (Q92769 whole entry): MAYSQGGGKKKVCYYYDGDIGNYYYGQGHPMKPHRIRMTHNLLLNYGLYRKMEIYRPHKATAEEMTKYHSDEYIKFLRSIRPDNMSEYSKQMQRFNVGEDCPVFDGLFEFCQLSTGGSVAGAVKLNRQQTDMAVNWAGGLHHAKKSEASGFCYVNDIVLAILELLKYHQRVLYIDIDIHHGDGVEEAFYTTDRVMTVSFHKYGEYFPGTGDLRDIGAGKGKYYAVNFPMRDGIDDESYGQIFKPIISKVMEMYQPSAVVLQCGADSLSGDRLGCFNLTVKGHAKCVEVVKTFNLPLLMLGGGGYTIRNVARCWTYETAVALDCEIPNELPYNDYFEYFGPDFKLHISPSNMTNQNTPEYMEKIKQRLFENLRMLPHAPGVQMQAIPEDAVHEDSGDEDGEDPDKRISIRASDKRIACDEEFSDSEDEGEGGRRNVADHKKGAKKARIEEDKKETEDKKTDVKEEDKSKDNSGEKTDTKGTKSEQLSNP
Assay: Inhibition of human full length C-terminal FLAG-tagged HDAC2 expressed in baculovirus infected Sf9 insect cells preincubated for 2 hrs followed by Fluor-de-Lys substrate addition measured after 30 mins by fluorescence assay
Assay type: cell-based
quantity name: IC50 (µM)
Numbers only here, please. The scale is µM.

Q) Note IC50 for the molecule shown: Nc1ccccc1NC(=O)CCCCCC(=O)Nc1ccccc1
A) 1.59

---

Molecular target: Histone deacetylase 3/Nuclear receptor corepressor 2 (HDAC3/NCoR2) (Homo sapiens, UniProt O15379)
Sequence (O15379 whole entry): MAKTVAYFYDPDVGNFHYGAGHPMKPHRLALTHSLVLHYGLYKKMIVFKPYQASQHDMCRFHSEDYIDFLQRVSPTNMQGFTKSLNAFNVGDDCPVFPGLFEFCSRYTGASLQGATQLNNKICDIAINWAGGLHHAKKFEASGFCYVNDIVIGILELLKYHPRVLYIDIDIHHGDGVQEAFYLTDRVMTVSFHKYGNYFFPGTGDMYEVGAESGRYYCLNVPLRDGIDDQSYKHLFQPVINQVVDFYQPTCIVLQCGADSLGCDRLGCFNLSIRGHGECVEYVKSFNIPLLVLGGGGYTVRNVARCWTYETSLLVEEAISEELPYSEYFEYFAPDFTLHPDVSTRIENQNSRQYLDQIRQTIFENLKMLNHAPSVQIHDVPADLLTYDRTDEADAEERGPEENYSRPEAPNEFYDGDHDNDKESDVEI
Sequence (Q9Y618 whole entry, further chain): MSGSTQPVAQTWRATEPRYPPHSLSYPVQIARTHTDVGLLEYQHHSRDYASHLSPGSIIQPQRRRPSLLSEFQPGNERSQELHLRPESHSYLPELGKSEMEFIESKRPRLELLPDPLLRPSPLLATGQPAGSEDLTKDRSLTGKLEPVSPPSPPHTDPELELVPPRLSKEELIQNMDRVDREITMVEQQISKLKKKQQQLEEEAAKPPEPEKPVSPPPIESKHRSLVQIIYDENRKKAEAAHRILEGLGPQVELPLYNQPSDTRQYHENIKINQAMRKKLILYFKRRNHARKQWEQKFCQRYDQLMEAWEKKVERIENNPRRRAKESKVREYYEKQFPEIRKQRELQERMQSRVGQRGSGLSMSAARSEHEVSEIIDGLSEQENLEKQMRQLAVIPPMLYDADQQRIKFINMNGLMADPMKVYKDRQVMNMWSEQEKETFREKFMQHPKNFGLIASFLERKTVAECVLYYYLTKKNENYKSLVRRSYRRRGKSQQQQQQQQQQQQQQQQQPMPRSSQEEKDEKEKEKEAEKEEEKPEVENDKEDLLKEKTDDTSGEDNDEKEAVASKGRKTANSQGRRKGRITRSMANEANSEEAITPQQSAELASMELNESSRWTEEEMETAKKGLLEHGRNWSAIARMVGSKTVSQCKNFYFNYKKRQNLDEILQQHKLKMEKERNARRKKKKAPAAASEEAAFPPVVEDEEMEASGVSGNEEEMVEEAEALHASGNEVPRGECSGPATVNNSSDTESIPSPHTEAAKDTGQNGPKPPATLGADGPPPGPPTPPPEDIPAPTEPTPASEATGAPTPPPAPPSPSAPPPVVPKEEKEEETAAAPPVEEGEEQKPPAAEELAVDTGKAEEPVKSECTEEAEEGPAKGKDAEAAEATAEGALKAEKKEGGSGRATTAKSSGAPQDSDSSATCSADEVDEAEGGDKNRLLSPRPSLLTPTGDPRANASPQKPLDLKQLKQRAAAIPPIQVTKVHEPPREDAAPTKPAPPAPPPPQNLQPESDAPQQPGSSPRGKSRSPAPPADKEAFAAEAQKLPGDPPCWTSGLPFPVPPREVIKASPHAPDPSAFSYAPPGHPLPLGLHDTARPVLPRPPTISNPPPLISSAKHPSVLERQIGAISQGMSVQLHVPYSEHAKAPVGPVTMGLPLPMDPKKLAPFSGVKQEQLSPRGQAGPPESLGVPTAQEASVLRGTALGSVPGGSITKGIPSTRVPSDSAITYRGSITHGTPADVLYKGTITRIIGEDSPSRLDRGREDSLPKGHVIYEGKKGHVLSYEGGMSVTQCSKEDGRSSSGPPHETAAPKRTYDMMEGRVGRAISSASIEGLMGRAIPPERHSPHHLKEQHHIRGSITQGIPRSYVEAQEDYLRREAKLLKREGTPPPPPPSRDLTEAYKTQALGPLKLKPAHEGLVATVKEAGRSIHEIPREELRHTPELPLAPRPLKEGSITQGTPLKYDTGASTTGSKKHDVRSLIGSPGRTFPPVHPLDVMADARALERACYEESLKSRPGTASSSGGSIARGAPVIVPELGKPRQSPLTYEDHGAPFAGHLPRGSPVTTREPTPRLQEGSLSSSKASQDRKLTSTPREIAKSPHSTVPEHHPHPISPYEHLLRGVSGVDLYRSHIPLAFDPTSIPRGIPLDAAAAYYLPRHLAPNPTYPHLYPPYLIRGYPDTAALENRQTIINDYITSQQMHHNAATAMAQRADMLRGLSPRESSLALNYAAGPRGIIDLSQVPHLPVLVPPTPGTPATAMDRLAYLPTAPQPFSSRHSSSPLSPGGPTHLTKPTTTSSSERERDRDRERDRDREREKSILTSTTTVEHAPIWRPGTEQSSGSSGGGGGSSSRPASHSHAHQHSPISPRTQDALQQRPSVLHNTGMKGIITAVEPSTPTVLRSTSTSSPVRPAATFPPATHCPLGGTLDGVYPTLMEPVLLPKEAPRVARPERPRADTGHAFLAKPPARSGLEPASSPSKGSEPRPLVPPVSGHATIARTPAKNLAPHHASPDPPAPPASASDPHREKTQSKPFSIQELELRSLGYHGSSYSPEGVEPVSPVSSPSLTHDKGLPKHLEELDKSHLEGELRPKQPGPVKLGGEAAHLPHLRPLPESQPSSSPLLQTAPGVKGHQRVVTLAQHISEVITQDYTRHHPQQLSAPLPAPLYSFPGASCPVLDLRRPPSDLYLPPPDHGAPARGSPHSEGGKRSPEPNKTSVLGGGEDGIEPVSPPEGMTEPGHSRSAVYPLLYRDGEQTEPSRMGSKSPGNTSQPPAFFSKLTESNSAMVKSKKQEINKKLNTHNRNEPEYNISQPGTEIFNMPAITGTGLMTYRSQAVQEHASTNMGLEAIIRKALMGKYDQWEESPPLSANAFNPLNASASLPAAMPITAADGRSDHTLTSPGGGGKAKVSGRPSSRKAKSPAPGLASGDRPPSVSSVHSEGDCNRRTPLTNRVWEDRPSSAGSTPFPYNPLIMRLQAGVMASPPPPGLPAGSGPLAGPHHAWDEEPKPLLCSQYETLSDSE
Experiment: Inhibition of human full length C-terminal His-tagged HDAC3/N-terminal GST-tagged human NCOR2 co-expressed in baculovirus infected Sf9 insect cells after 1 hr in presence of acetylated lysine substrate by fluorescence assay
quantity name: IC50 (µM)
Numbers only here, please. The scale is µM.

Q) Note IC50 for the compound shown: O=C(/C=C(\CO)c1ccccc1)c1ccccc1
A) 50

Each recorded value in this set is attributed to ChEMBL document CHEMBL4033774.
